Below is a list of entries, each paired with its recorded Neutralization IC50, H9-HK97 value.
target.of.assay: HA of ca A/chicken/Hong Kong/G9/97 (H9N2) virus (influenza A virus)
assay.info: cell-based or functional assay
test.readout: Neutralization IC50, H9-HK97 (µg/mL)

[
  {
    "binder": "Antibody 15 (antibody, V domains shown) VH: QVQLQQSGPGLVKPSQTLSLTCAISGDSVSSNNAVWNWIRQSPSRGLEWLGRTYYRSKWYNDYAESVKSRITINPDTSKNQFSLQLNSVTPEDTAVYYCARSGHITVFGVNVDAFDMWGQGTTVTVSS VL: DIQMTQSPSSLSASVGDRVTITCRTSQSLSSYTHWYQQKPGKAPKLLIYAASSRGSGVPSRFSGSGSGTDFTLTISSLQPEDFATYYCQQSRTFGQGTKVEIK",
    "assay.result": 0.35
  },
  {
    "binder": "Antibody 12 (antibody, V domains shown) VH: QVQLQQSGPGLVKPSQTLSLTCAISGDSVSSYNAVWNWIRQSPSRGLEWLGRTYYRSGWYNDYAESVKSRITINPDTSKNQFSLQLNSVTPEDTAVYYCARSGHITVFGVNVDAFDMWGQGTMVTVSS VL: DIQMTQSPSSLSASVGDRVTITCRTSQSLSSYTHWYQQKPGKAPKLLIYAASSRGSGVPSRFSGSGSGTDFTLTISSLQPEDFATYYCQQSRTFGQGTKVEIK",
    "assay.result": 0.31
  }
]
